Data credit: ChEMBL document CHEMBL1955725

Task for the reader: assign each of the following compounds its reported half-life.
experiment: Terminal elimination half life in Swiss outbred mouse at 10 mg/kg, po; assay type: ADME, organism-based; parameters: dose 10 mg/kg, route oral; settings: in vivo, read-out: beta t1/2 (converted)
Number in h, nothing else.

Item Cc1cc(Nc2ccc(C(F)(F)F)cc2)n2nc(C(C)(F)F)nc2n1 has what recorded half-life?
1.6

Item Cc1cc(Nc2ccc(S(F)(F)(F)(F)F)cc2)n2nc(C(C)(F)F)nc2n1 [DSM-265] has what recorded half-life?
2.5

Item CCC(F)(F)c1nc2nc(C)cc(Nc3ccc(C(F)(F)F)cc3)n2n1 has what recorded half-life?
3.1

* * *

test: Terminal elimination half life in Swiss outbred mouse at 50 mg/kg, po; assay type: ADME, organism-based; parameters: dose 50 mg/kg, route oral; details: in vivo, read-out: beta t1/2 (converted)
measured.property: half-life (h)
Number in h, nothing else.

Item Cc1cc(Nc2ccc(S(F)(F)(F)(F)F)cc2)n2nc(C(C)(F)F)nc2n1 has what recorded half-life?
3.2

* * *

Target: Dihydroorotate dehydrogenase (Plasmodium falciparum, UniProt Q54A96)
Sequence (Q54A96 whole entry): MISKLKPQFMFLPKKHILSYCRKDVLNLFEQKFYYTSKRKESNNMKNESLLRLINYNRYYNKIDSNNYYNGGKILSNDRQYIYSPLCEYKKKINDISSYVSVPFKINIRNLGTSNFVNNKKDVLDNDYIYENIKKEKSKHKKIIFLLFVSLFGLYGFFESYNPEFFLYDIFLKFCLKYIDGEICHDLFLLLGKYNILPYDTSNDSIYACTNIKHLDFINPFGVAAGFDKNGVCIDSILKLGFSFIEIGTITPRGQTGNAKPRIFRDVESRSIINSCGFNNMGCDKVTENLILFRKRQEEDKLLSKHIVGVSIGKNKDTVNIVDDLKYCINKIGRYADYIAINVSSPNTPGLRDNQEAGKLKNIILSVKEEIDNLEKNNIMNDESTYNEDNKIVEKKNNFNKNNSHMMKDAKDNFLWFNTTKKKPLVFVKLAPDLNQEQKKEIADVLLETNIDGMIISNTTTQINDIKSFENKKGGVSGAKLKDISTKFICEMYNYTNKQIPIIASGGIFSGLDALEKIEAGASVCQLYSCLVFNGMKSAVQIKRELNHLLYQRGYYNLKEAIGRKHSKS
measured.property: pIC50
FYI, pIC50 means -log10 of a concentration in mol per litre.

Item Cc1cc(Nc2ccc(C(F)(F)F)cc2)n2nc(C3CC3)nc2n1 has what recorded pIC50?
6.85

Item COCc1nc2nc(C)cc(Nc3ccc(C(F)(F)F)cc3)n2n1 has what recorded pIC50?
6.39

Item Cc1cc(Nc2ccc(C(F)(F)F)cc2)n2nc(CCO)nc2n1 has what recorded pIC50?
6.03

Item COCc1nc2nc(C)cc(Nc3ccc(S(F)(F)(F)(F)F)cc3)n2n1 has what recorded pIC50?
6.41

Item Cc1cc(Nc2ccc(C(F)(F)F)cc2)n2nc(C(C)(F)F)nc2n1 has what recorded pIC50?
7.42

* * *

system: Plasmodium falciparum; assay: Antimalarial activity against chloroquine-resistant Plasmodium falciparum Dd2 by [3H]hypoxanthine incorporation assay in presence of human serum; assay type: functional, organism-based
Task for the reader: assign each of the following molecules its reported EC50.
Number in nM, nothing else.

Item Cc1cc(Nc2ccc(C(F)(F)F)cc2)n2nc(C(C)(F)F)nc2n1 has what recorded EC50?
13

Item Cc1cc(Nc2ccc(S(F)(F)(F)(F)F)cc2)n2nc(C(C)(F)F)nc2n1 [DSM-265] has what recorded EC50?
57
